# assay-procedure: Aqueous solubility
# Format: physicochemical
# condition-info: aqueous solution, pH 7.4, aqueous buffer; read-out: solubility
measurement-label: solubility (mg/mL)

1. CCN(CC)CCNC(=O)c1c(C)[nH]c(/C=C2\C(=O)Nc3ccc(F)cc32)c1C.O=C(O)CC(O)C(=O)O [Sunitinib] : 0.01
